Documented % cells in cell cycle phase: G2/M across a set of substances
- System: HeLa cells
- experimental_details: Cell cycle assay in HeLa cells
- Format: cell-based, human
- reported_conditions: HeLa cells, 150 nM, 48 hours
In the oligonucleotide strings, read from the 5' end, every base follows the letter of its sugar. An asterisk marks phosphorothioate; unmarked linkages are phosphodiester. Other units and linkages are bracketed, terminal groups are in braces. A string of capitals states the bases alone. e = 2'-O-(2-methoxyethyl) (MOE); [5mC] = 5-methylcytosine; d = 2'-deoxy (DNA)
result_type: % cells in cell cycle phase: G2/M (%)

substance | result_type | unit_info | recorded_value
328383 (eA*eG*eA*eG*eG*dG*dG*dA*dG*dA*d[5mC]*dG*dA*dG*dA*eG*e[5mC]*eA*e[5mC]*eT) [compound 328383] | % cells in cell cycle phase: G2/M | % | 34
328403 (antisense eA*eG*eG*e[5mC]*e[5mC]*dT*dA*dT*dT*d[5mC]*d[5mC]*dT*dG*dT*dA*eG*e[5mC]*eA*eA*eA) [compound 328403] | % cells in cell cycle phase: G2/M | % | 24
327902 (antisense eG*eG*e[5mC]*eT*eG*eT*e[5mC]*eA*eA*eT*eT*e[5mC]*eA*eT*eA*eG*eG*eT*e[5mC]*eA*eG) [compound 327902] | % cells in cell cycle phase: G2/M | % | 28
327905 (antisense e[5mC]*eA*eG*eA*e[5mC]*eT*e[5mC]*e[5mC]*eG*eG*eT*eG*eG*eA*eA*eT*eG*eA*eA*eG*eG*eA) [compound 327905] | % cells in cell cycle phase: G2/M | % | 24

###

- Test system: HeLa cells
- experimental_details: Cell cycle assay in HeLa cells
- Assay type: cell-based, human
- reported_conditions: HeLa cells, 150 nM oligomeric compound, 24 hours, relative to untreated control (UTC = 100)
In the oligonucleotide strings, read from the 5' end, every base follows the letter of its sugar. An asterisk marks phosphorothioate; unmarked linkages are phosphodiester. Other units and linkages are bracketed, terminal groups are in braces. A string of capitals states the bases alone. e = 2'-O-(2-methoxyethyl) (MOE); [5mC] = 5-methylcytosine; d = 2'-deoxy (DNA)
Documented % cells in cell cycle phase G1 across a set of substances

substance | % cells in cell cycle phase G1
327885 (antisense eA*e[5mC]*eT*eA*e[5mC]*e[5mC]*eT*eG*e[5mC]*eA*e[5mC]*eT*eG*eT*eA*eA*eG*e[5mC]*eA*e[5mC]*eT*eT*eT*eG) [compound 327885] | 129%
327903 (antisense eA*eA*e[5mC]*eT*eA*eT*eA*e[5mC]*eA*eA*e[5mC]*e[5mC]*eT*eA*e[5mC]*eT*eA*e[5mC]*e[5mC]*eT*e[5mC]*eA) [compound 327903] | 92%
328342 (e[5mC]*eA*eA*eT*eT*dG*d[5mC]*dG*d[5mC]*dT*dA*d[5mC]*dA*dG*dA*eA*e[5mC]*eT*eG*eT) [compound 328342] | 33%
338756 (antisense TGCCCTGCTCAGAGCCCTAG; all 2'-MOE, all phosphorothioate, methylation of C not given here) [compound 338756] | 147%
328111 (antisense eT*e[5mC]*e[5mC]*eG*eA*eG*eT*e[5mC]*eG*eG*eA*eG*eG*eA*eG*eG*eA*eG*eG*eA*eA) [compound 328111] | 127%

###

- Test system: HeLa cells
- experimental_details: Cell cycle assay in HeLa cells
- Format: cell-based, human
- reported_conditions: HeLa cells, 150 nM oligomeric compound, 48 hours after treatment; relative to untreated control (UTC=100)
In the oligonucleotide strings, read from the 5' end, every base follows the letter of its sugar. An asterisk marks phosphorothioate; unmarked linkages are phosphodiester. Other units and linkages are bracketed, terminal groups are in braces. A string of capitals states the bases alone. e = 2'-O-(2-methoxyethyl) (MOE); [5mC] = 5-methylcytosine; d = 2'-deoxy (DNA)
Use 700% as the dividing line for % cells in cell cycle phase: subG1, with the line itself on the True side and lower values as False.

substance | study_system | label_value
327904 (antisense eA*e[5mC]*eT*e[5mC]*eA*e[5mC]*e[5mC]*eG*eA*e[5mC]*eA*eG*e[5mC]*eG*eT*eT*eG*eA*eA*eT*eG*eT*eT) [compound 327904] | HeLa cells | False
338756 (antisense TGCCCTGCTCAGAGCCCTAG; all 2'-MOE, all phosphorothioate, methylation of C not given here) [compound 338756] | HeLa cells | False
340365 (antisense TACTTTATATAGAACACAAG; sugars from the 5' end e5 d10 e5, all phosphorothioate, methylation of C not given here) [compound 340365] | HeLa cells | False
328419 (antisense eT*eG*eT*eT*eG*d[5mC]*d[5mC]*dT*dA*dA*d[5mC]*dG*dA*dA*d[5mC]*eA*e[5mC]*eA*eG*eA) [compound 328419] | HeLa cells | False
328339 (eG*e[5mC]*eA*eG*e[5mC]*dG*d[5mC]*dA*dG*d[5mC]*dT*dG*dG*dT*d[5mC]*eT*e[5mC]*e[5mC]*e[5mC]*e[5mC]) [compound 328339] | HeLa cells | False
328749 (antisense e[5mC]*eA*eG*e[5mC]*e[5mC]*dT*dG*d[5mC]*d[5mC]*dA*d[5mC]*d[5mC]*dG*d[5mC]*d[5mC]*eG*e[5mC]*eT*eT*eT) [compound 328749] | HeLa cells | True
328676 (eA*e[5mC]*e[5mC]*eT*e[5mC]*d[5mC]*d[5mC]*dA*dG*d[5mC]*d[5mC]*dA*dA*dT*d[5mC]*e[5mC]*eA*eT*eG*eT; antisense) [compound 328676] | HeLa cells | False
328136 (eA*eA*e[5mC]*eT*eA*e[5mC]*eT*eT*e[5mC]*e[5mC]*eA*eG*eA*eG*e[5mC]*eA*eG*eG*eT*eG*eA; anti-miR) [compound 328136] | HeLa cells | False
327896 (antisense eA*e[5mC]*eA*eG*eT*eT*e[5mC]*eT*eT*e[5mC]*eA*eA*e[5mC]*eT*eG*eG*e[5mC]*eA*eG*e[5mC]*eT*eT) [compound 327896] | HeLa cells | True
328674 (eT*eG*e[5mC]*e[5mC]*e[5mC]*dT*dG*d[5mC]*dT*d[5mC]*dA*dG*dA*dG*d[5mC]*e[5mC]*e[5mC]*eT*eA*eG; antisense) [compound 328674] | HeLa cells | True

###

Documented Follistatin (% UTC) across a set of substances
- Tested on: follistatin
- experimental_details: Follistatin mRNA expression in HepG2 cells
- Type: cell-based, human
- reported_conditions: Experiment 1, basal (no insulin); HepG2; 100 nM oligomeric compound
In the oligonucleotide strings, read from the 5' end, every base follows the letter of its sugar. An asterisk marks phosphorothioate; unmarked linkages are phosphodiester. Other units and linkages are bracketed, terminal groups are in braces. A string of capitals states the bases alone. e = 2'-O-(2-methoxyethyl) (MOE); [5mC] = 5-methylcytosine; d = 2'-deoxy (DNA)

substance | Follistatin (% UTC)
327941 (antisense eA*eA*e[5mC]*e[5mC]*e[5mC]*eA*e[5mC]*e[5mC]*eG*eA*e[5mC]*eA*eG*e[5mC]*eA*eA*eT*eG*eA*eA*eT*eG*eT*eT) [compound 327941] | 80
327905 (antisense e[5mC]*eA*eG*eA*e[5mC]*eT*e[5mC]*e[5mC]*eG*eG*eT*eG*eG*eA*eA*eT*eG*eA*eA*eG*eG*eA) [compound 327905] | 104
327892 (antisense eA*e[5mC]*eT*eT*eT*e[5mC]*eG*eG*eT*eT*eA*eT*e[5mC]*eT*eA*eG*e[5mC]*eT*eT*eT*eA) [compound 327892] | 91
340927 (antisense eT*eG*eA*eG*e[5mC]*dT*dA*d[5mC]*dA*dG*dT*dG*d[5mC]*dT*dT*e[5mC]*eA*eT*e[5mC]*eT*e[5mC]*eA) [compound 340927] | 111
327901 (antisense eT*eG*eA*eG*e[5mC]*eT*eA*e[5mC]*eA*eG*eT*eG*e[5mC]*eT*eT*e[5mC]*eA*eT*e[5mC]*eT*e[5mC]*eA) [compound 327901] | 93
327876 (antisense eA*eA*e[5mC]*eA*e[5mC]*eT*eG*eA*eT*eT*eT*e[5mC]*eA*eA*eA*eT*eG*eG*eT*eG*e[5mC]*eT*eA) [compound 327876] | 104
327954 (antisense eA*e[5mC]*eA*eA*eA*eG*eT*eT*e[5mC]*eT*eG*eT*eG*eA*eT*eG*e[5mC]*eA*e[5mC]*eT*eG*eA) [compound 327954] | 100
327922 (antisense eT*e[5mC]*eA*eG*eT*eT*eT*eT*eG*e[5mC]*eA*eT*eG*eG*eA*eT*eT*eT*eG*e[5mC]*eA*e[5mC]*eA) [compound 327922] | 57
